biological target: CDK2/Cyclin E1 (Homo sapiens); experiment: CDK2/Cyclin E1 Caliper Assay (LabChip EZ Reader mobility shift); settings: read-out: Caliper Assay (CDK2/CCNE1): IC50
pIC50: −log10 of the molar value.
PARAMETER: pIC50

CNC(=O)[C@@H](NC(=O)[C@@H]1CN(C(=O)c2cncs2)CC12CN(C(=O)[C@H]1CC1(C)C)C2)c1nnc(C2CCCCC2)o1 [I-429]: 5.00 to 6.00
CC(=O)N[C@H]1CCCN(C(=O)[C@@H](NC(=O)[C@@H]2CN(C(=O)c3cncs3)CC23CN(C(=O)[C@H]2CC2(C)C)C3)[C@@H](C)OCC2CCCCC2)C1 [I-330]: ≥ 8.00
C[C@@H](OCc1ccccc1)[C@H](NC(=O)C1CN(C(=O)c2cnn(Cc3ccccc3)c2)CC12CN(C(=O)C1CC1(C)C)C2)C(=O)NCCCCCN (stereo partly shown) [I-57]: 7.00 to 8.00
C[C@@H](OCC1CCCCC1)[C@H](NC(=O)[C@@H]1CN(C(=O)c2cncs2)CC12CN(C(=O)[C@H]1CC1(C)C)C2)C(=O)N1CCC(F)(F)CC1 [I-192A]: ≥ 8.00
C[C@@H](OCC1CCOCC1)[C@H](NC(=O)[C@@H]1CN(C(=O)c2cncs2)CC12CN(C(=O)[C@H]1CC1(C)C)C2)C(=O)N1CCC(c2ccncc2)CC1 [I-442]: ≥ 8.00
C[C@@H]1C[C@H](C)CN(C(=O)[C@@H](NC(=O)[C@H]2CN(C(=O)c3cn[nH]c3)CC23CN(C(=O)[C@H]2CC2(C)C)C3)[C@@H](C)OCC2CCCCC2)C1 [I-173B]: 5.00 to 6.00

Request: Query (compound): C[C@@H](OCc1ccccc1)[C@H](NC(=O)C1CN(C(=O)c2cnn(Cc3ccccc3)c2)CC12CN(C(=O)C1CC1(C)C)C2)C(=O)NCCCCCNC(=O)OC(C)(C)C (stereo partly shown) [I-52] ; field requested: pIC50
Result: 7.00 to 8.00

Request: Could you tell me which pIC50 is on file for CNC(=O)[C@@H](NC(=O)[C@@H]1CN(C(=O)c2cnco2)CC12CN(C(=O)[C@H]1CC1(C)C)C2)[C@@H](C)OCc1ccccc1 [I-39A] ?
Result: 6.00 to 7.00

Request: Given the compound C[C@@H](OCC1CCC(F)(F)CC1)[C@H](NC(=O)[C@@H]1CN(C(=O)c2cncs2)CC12CN(C(=O)[C@H]1CC1(C)C)C2)C(=O)N1CC2CCC(C1)O2 [I-469] , what is its reported pIC50?
Result: ≥ 8.00

Request: Given C[C@@H](OCC1CCOCC1)[C@@H](COC(F)F)NC(=O)[C@@H]1CN(C(=O)c2cncs2)CC12CN(C(=O)[C@H]1CC1(C)C)C2 [I-441] , state its recorded pIC50.
Result: 6.00 to 7.00
